Target: T1, mTfR-1 P325A on Expi293 cells (mouse, UniProt Q62351 1-763)
T1 construct: whole, on cells
T1 sequence (Q62351 whole entry P325A): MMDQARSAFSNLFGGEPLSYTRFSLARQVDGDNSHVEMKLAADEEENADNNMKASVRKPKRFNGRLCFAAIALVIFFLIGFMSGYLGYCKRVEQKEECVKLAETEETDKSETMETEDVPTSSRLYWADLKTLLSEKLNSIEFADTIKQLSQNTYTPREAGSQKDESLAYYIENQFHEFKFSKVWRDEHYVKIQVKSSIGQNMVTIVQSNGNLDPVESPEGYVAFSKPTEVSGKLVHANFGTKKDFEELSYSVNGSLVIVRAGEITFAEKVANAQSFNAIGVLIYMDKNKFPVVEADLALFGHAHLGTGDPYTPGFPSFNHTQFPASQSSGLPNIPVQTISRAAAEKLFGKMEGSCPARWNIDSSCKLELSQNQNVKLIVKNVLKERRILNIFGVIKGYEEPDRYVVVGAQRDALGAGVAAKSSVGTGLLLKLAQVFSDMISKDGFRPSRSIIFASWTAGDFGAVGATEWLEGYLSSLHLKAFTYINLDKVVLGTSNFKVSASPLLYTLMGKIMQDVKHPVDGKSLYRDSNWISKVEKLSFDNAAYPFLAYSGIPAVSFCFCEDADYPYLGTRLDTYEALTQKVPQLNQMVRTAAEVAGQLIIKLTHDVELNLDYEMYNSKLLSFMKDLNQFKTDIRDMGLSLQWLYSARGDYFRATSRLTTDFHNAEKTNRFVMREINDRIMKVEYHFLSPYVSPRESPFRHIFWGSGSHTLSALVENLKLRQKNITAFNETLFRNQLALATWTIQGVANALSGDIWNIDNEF
Experiment: FACS, transfected Expi293 cells
VALUE_KIND: % double-positive cells vs WT (%)
Form entry: value (%) — number only.

Please review the following examples before continuing.
BINDER | VALUE_KIND | UNIT_LABEL | RECORDED_RESULT
Clone C VNAR-hFc fusion (Fc fusion, not shown: a dimerising Fc or GST, bivalent VNAR-Fc; also called Clone C-hFc) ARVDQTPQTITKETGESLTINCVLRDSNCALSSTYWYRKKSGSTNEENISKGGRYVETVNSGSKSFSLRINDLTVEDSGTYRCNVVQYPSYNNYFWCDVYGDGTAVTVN | % double-positive cells vs WT | % | 148
8D3 antibody (anti-mouse TfR-1 control; 8D3-hFc formatted antibody) (antibody, V domains shown) VH: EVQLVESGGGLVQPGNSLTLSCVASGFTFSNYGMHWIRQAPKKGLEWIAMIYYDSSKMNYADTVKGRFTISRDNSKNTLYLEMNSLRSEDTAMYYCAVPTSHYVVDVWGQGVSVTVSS VL: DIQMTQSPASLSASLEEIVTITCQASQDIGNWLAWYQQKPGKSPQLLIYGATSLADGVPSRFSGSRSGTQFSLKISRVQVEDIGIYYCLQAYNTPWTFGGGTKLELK | % double-positive cells vs WT | % | 119
Clone C variant 18 VNAR-hFc (Fc fusion, not shown: a dimerising Fc or GST, also called Clone C v18; Clone C var; 18) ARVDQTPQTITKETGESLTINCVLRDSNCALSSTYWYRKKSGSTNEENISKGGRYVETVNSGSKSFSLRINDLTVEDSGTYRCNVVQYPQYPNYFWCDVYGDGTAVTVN | % double-positive cells vs WT | % | 175

Look up % double-positive cells vs WT for this binder: Clone C variant 13 VNAR-hFc (Fc fusion, not shown: a dimerising Fc or GST, also called Clone C v13; Clone C var; 13) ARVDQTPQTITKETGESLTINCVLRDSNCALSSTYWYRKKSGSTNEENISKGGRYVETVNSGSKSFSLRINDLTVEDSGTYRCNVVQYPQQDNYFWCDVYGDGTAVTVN
83
